- measuredTarget: Epidermal growth factor receptor (Homo sapiens)
- testSummary: In vitro inhibition of intrinsic tyrosine protein kinase activity of the Epidermal growth factor receptor using […]
// IC50 lookup, one value per entry

Here's what some known entries look like.
molecule | valueType | measuredValue
O=C(NCc1ccccc1)c1ccc(-c2ccc(-c3ccccc3)cc2O)cc1 | IC50 | > 1 µM
COCOc1cc(C(C)(C)C)ccc1-c1ccc(C(=O)OCC(C)CC(C)(C)C)cc1 (stereo not given) | IC50 | > 50 µM
CC(C)(C)c1ccc(-c2ccc(C(=O)NCc3ccccc3)cc2)c(O)c1 | IC50 | > 5 µM
COC(=O)c1ccc(-c2ccc(-c3ccccc3)cc2O)cc1 | IC50 | 14 µM

Now turn to the next molecule.
In: Recorded IC50 of CC(C)(C)c1cc(O)cc(-c2ccc(C(=O)NCc3ccccc3)cc2)c1 , please.
Out: > 5 µM

====

- measuredTarget: Epidermal growth factor receptor (Homo sapiens)
- setupConditions: 10 uM
- Description: Inhibition of Epidermal growth factor receptor activity against tripeptide RR-Src at 10 uM
valueType: inhibition (%)

compound | inhibition (%)
COCOc1cc(-c2ccccc2)ccc1-c1ccc(C(=O)O)cc1 | 8

[P] CC(COC(=O)c1ccc(-c2ccc(-c3ccccc3)cc2O)cc1)CC(C)(C)C (stereo not given)
[Q] COCOc1cc(-c2ccccc2)ccc1-c1ccc(C(=O)OC)cc1
[R] CC(COC(=O)c1ccc(-c2cccc(-c3ccccc3)c2O)cc1)CC(C)(C)C (stereo not given)
[S] COCOc1c(-c2ccccc2)cccc1-c1ccc(C(=O)OCC(C)CC(C)(C)C)cc1 (stereo not given)
In: Falling order of inhibition, please. To answer, arrange all of the labels according to the requested order.
Out: S, R, P, Q

====

- measuredTarget: Epidermal growth factor receptor (Homo sapiens, UniProt P00533)
- Sequence (P00533 whole entry): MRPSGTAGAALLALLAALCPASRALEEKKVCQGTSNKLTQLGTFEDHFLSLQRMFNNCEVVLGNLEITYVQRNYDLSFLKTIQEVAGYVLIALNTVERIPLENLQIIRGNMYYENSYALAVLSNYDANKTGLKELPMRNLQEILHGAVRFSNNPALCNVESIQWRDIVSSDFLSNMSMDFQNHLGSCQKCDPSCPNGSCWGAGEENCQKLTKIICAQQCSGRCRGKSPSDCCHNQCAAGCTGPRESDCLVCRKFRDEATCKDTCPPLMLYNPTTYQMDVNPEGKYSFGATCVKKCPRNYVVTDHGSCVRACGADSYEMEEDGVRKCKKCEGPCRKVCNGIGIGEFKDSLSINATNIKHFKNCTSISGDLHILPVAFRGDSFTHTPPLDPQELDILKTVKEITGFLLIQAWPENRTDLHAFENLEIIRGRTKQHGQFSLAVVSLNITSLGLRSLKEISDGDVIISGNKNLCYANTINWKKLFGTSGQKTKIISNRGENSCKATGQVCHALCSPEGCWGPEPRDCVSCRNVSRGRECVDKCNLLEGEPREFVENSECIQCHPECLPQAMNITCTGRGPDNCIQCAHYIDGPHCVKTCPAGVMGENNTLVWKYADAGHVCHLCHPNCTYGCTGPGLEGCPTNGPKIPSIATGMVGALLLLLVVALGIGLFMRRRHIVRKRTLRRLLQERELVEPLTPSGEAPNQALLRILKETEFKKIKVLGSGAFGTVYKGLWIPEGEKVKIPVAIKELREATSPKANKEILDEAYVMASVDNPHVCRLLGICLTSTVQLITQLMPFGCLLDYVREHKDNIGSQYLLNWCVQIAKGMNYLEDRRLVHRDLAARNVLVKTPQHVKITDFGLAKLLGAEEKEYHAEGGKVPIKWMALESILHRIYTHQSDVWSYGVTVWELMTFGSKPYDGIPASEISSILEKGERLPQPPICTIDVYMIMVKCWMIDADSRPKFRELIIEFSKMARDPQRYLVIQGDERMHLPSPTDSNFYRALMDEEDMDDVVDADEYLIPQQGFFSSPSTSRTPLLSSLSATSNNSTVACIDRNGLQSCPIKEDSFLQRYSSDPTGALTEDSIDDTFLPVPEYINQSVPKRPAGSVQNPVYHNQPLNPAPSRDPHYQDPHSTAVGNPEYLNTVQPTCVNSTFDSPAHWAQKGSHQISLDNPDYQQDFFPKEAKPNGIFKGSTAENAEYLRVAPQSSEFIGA
- testSummary: Inhibition of Epidermal growth factor receptor activity against […] at 10 uM
valueType: IC50

In: Requested field: IC50. Item: COCOc1cc(C(C)(C)C)ccc1-c1ccc(C(=O)OC)cc1
Out: > 10 µM

====

- measuredTarget: Epidermal growth factor receptor (Homo sapiens, UniProt P00533)
- setupConditions: 10 uM
- Description: Inhibition of Epidermal growth factor receptor activity against tripeptide RR-Src at 10 uM
valueType: inhibition (%)

Recorded inhibition, per entry:
molecule | inhibition / %
COC(=O)c1ccc(-c2ccc(C(C)(C)C)cc2O)cc1 | 6
CC(COC(=O)c1ccc(-c2cc(O)cc(C(C)(C)C)c2)cc1)CC(C)(C)C (stereo unspecified) | 10

[a] CC(COC(=O)c1ccc(-c2ccc(C(C)(C)C)cc2O)cc1)CC(C)(C)C (stereo unspecified)
[b] CC(COC(=O)c1ccc(-c2cc(O)cc(-c3ccccc3)c2)cc1)CC(C)(C)C (stereo unspecified)
[c] O=C(O)c1ccc(-c2cc(O)cc(-c3ccccc3)c2)cc1
[d] O=C(NCc1ccccc1)c1ccc(-c2cc(O)cc(-c3ccccc3)c2)cc1
In: Could you please sort these 4 entries by inhibition from high to low? To answer, arrange all of the labels according to the requested order.
Out: b, c, d, a

====

Known pIC50 of a selection of compounds
- measuredTarget: Epidermal growth factor receptor (Homo sapiens, UniProt P00533)
- testSummary: In vitro inhibition of intrinsic tyrosine protein kinase activity of the Epidermal growth factor receptor using […]
pIC50: −log10 of the molar value.

cpdSmiles | pIC50
CC(C)(C)c1cc(O)cc(-c2ccc(CO)cc2)c1 | < 5.00
O=C(NCc1ccccc1)c1ccc(-c2cccc(-c3ccccc3)c2O)cc1 | < 5.30

Please look at the following compound next.
In: Could you share which pIC50 value was measured for COCOc1cc(-c2ccccc2)ccc1-c1ccc(C(=O)NCc2ccccc2)cc1 ?
Out: < 6.00
